We begin with a simple list: items and their reported MIC.
# Test system: Escherichia coli
# assay notes: Antibacterial activity against Escherichia coli ATCC 25922 assessed as reduction in bacterial growth incubated for 1 day by paper disk diffusion method
# Format: functional
# measurement setup: ATCC 25922, 24 h
Report as a plain number; the unit µg/mL is understood.

## Task Any idea what MIC was measured for CCOC(=O)C1=C(C)OC(N)=C(C(=O)OCC)C12C(=O)Nc1ccc(S(=O)(=O)N3CCCCC3)cc12 (centres undefined) ?
## Result 71.1

====

# System: Aspergillus brasiliensis
# assay notes: Antifungal activity against Aspergillus brasiliensis ATCC 16404 assessed as diameter of inhibition zone at 0.5 mg/ml incubated for 72 hrs by agar diffusion method
# Type: functional
# measurement setup: read-out: DIZ
quantity name: zone of inhibition at 500 µg/mL (mm)
Only the number, expressed in mm, is required.

## Task API: value(readout=zone of inhibition at 500 µg/mL, system=Aspergillus brasiliensis) for record CCOC(=O)C1=C(c2ccccc2)OC(N)=C(C#N)C12C(=O)Nc1ccc(S(=O)(=O)N3CCCCC3)cc12 (centres undefined)
## Result 20

====

# System: Escherichia coli
# assay notes: Antibacterial activity against Escherichia coli ATCC 25922 assessed as reduction in bacterial growth incubated for 1 day by paper disk diffusion method
# Type: functional
# measurement setup: ATCC 25922, 24 h
// reported log10 of MIC per item
On a log10 scale: recorded MIC, unit µg/mL.

As a guide, the following entries are already answered.
CCOC(=O)/C(C#N)=C1\C(=O)Nc2ccc(S(=O)(=O)N3CCCCC3)cc21 | 1.80
CCOC(=O)/C(C#N)=C1\C(=O)Nc2ccc(S(=O)(=O)N3CCOCC3)cc21 | 0.59
CN(C)[C@@H]1C(O)=C(C(N)=O)C(=O)[C@@]2(O)C(O)=C3C(=O)c4c(O)cccc4[C@@](C)(O)[C@H]3C[C@@H]12 | 1.19
CCOC(=O)C1=C(N)OC(C)=C(C(C)=O)C12C(=O)Nc1ccc(S(=O)(=O)N3CCOCC3)cc12 (stereo not drawn) | 1.19
CCOC(=O)C1=C(C)OC(N)=C(C(=O)OCC)C12C(=O)Nc1ccc(S(=O)(=O)N3CCOCC3)cc12 (stereo not drawn) | 1.49

## Task I am curious: what log10 of MIC value has been reported for CC(=O)C1=C(C)OC(N)=C(C#N)C12C(=O)Nc1ccc(S(=O)(=O)N3CCOCC3)cc12 (stereo not drawn) ?
## Result 1.19

## Task May I ask what log10 of MIC has been recorded for CCOC(=O)C1=C(c2ccccc2)OC(N)=C(C#N)C12C(=O)Nc1ccc(S(=O)(=O)N3CCOCC3)cc12 (stereo not drawn) ?
## Result 1.95

## Task What measured log10 of MIC goes with "N#CC(C#N)=C1C(=O)Nc2ccc(S(=O)(=O)N3CCOCC3)cc21" ?
## Result 0.89

## Task Please report the recorded log10 of MIC for CC(=O)C1=C(C)OC(N)=C(C#N)C12C(=O)Nc1ccc(S(=O)(=O)N3CCCCC3)cc12 (stereo not drawn) .
## Result 1.80

## Task If you can, please state the reported log10 of MIC value of CCOC(=O)C1=C(C)OC(N)=C(C#N)C12C(=O)Nc1ccc(S(=O)(=O)N3CCCCC3)cc12 (stereo not drawn) .
## Result 1.55

## Task Item under review: CCOC(=O)C1=C(c2ccccc2)OC(N)=C(C#N)C12C(=O)Nc1ccc(S(=O)(=O)N3CCCCC3)cc12 (stereo not drawn) . Reported log10 of MIC?
## Result 1.19

## Task Give its log10 of MIC value. Item: CCOC(=O)C1=C(N)OC(C)=C(C(C)=O)C12C(=O)Nc1ccc(S(=O)(=O)N3CCCCC3)cc12 (stereo not drawn)
## Result 1.25

## Task Given CC(=O)C1=C(c2ccccc2)OC(N)=C(C#N)C12C(=O)Nc1ccc(S(=O)(=O)N3CCCCC3)cc12 (stereo not drawn) , state its recorded log10 of MIC.
## Result 1.25

====

# Test system: Aspergillus brasiliensis
# assay notes: Antifungal activity against Aspergillus brasiliensis ATCC 16404 assessed as diameter of inhibition zone at 0.5 mg/ml incubated for 72 hrs by agar diffusion method
# Assay type: functional
# measurement setup: read-out: DIZ
quantity name: zone of inhibition at 500 µg/mL
Returns: string containing the number followed by the unit.

Record excerpt, results attached:
CCOC(=O)C1=C(C)OC(N)=C(C(=O)OCC)C12C(=O)Nc1ccc(S(=O)(=O)N3CCOCC3)cc12 (stereo not drawn) | 11 mm
CC(=O)C1=C(C)OC(N)=C(C#N)C12C(=O)Nc1ccc(S(=O)(=O)N3CCCCC3)cc12 (stereo not drawn) | 14 mm

## Task For the record CCOC(=O)C1=C(N)OC(C)=C(C(C)=O)C12C(=O)Nc1ccc(S(=O)(=O)N3CCCCC3)cc12 (stereo not drawn) , what value of zone of inhibition at 500 µg/mL is listed for Aspergillus brasiliensis?
## Result 10 mm
